Consider the following compounds; for each one, report its MOR agonist activity, [35S]GTPγS binding to Gαo, FLNA-binding compound as agonist 1 μM.
Target: mu opiate receptor (MOR) (Rattus norvegicus)
Construct: from tissue; host or cells: rat striatal membrane preparation
Assay: MOR agonist activity using [35S]GTPγS binding assay in striatal membranes
Assay type: biochemical
Conditions: 1 μM compound, striatal membranes
Express your answer in %, writing the number without its unit.

Any idea what its MOR agonist activity, [35S]GTPγS binding to Gαo, FLNA-binding compound as agonist 1 μM is? The compound is O=S(=O)(c1cccs1)N1CCC2(CC1)OCCN2S(=O)(=O)c1cccs1 [Compound C0141M]
213.9

Item under review: O=S(=O)(c1ccc(C(F)(F)F)cc1Br)N1CCC2(CC1)OCCN2S(=O)(=O)c1ccc(C(F)(F)F)cc1Br [Compound C0071] . Reported MOR agonist activity, [35S]GTPγS binding to Gαo, FLNA-binding compound as agonist 1 μM?
355.3

So what does the record say about MOR agonist activity, [35S]GTPγS binding to Gαo, FLNA-binding compound as agonist 1 μM for COc1ccc(S(=O)(=O)N2CCCC3(C2)OCCN3S(=O)(=O)c2ccc(OC)cc2)cc1 (stereo not drawn) [Compound C0145M] ?
289.2

###

Target: mu opiate receptor (MOR) (Rattus norvegicus, UniProt P33535)
Construct: from tissue; host or cells: rat striatal membrane preparation
Sequence (P33535 whole entry): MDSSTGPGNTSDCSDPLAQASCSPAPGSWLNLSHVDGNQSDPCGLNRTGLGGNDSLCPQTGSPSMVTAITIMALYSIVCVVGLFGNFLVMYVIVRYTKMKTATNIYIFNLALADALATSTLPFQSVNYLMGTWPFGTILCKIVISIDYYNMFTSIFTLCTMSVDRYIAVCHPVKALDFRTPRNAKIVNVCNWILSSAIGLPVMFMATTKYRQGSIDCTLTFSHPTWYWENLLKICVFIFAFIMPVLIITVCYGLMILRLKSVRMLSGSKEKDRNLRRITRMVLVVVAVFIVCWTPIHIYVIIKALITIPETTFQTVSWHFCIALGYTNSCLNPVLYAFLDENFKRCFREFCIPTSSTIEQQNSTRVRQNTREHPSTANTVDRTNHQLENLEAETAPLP
Experiment: MOR agonist activity using [35S]GTPγS binding assay in striatal membranes
Format: biochemical
Settings: 1 μM compound + 1 μM β-funaltrexamine
Answer false if MOR agonist activity, [35S]GTPγS binding to Gαo, 1 μM + BFNA is under 80%, and true if it is 80% or more.

Record N#Cc1ccccc1S(=O)(=O)N1CCC2(CC1)OCCN2S(=O)(=O)c1ccccc1C#N ; criterion: MOR agonist activity, [35S]GTPγS binding to Gαo, 1 μM + BFNA no lower than 80%. Met?
false

Given the entry O=C(c1ccc([N+](=O)[O-])cc1)N1CCC2(CC1)OCCN2S(=O)(=O)c1ccc([N+](=O)[O-])cc1 , answer whether its MOR agonist activity, [35S]GTPγS binding to Gαo, 1 μM + BFNA meets or surpasses 80%.
false

Check if MOR agonist activity, [35S]GTPγS binding to Gαo, 1 μM + BFNA >= 80% (inclusive). Item: COc1ccc(S(=O)(=O)N2CCCC3(C2)OCCN3S(=O)(=O)c2ccc(OC)cc2)cc1 (centres unmarked) [Compound C0145M]
true

Is reported MOR agonist activity, [35S]GTPγS binding to Gαo, 1 μM + BFNA greater than or equal to 80% here: CC(=O)Nc1ccc(S(=O)(=O)N2CCC3(CC2)OCCN3S(=O)(=O)c2ccc(NC(C)=O)cc2)cc1
false

Determine whether measured MOR agonist activity, [35S]GTPγS binding to Gαo, 1 μM + BFNA meets or exceeds 80% for CC(=O)c1ccc(S(=O)(=O)N2CCC3(CC2)OC(CN(C)C)CN3S(=O)(=O)c2ccc(C(C)=O)cc2)cc1 (centres unmarked)
false

Is the recorded value of MOR agonist activity, [35S]GTPγS binding to Gαo, 1 μM + BFNA equal to or greater than 80% for this compound? O=S(=O)(c1ccc(Cl)cc1)N1CCC2(CC1)OCCN2S(=O)(=O)c1ccc(Cl)cc1
false

Does the reported MOR agonist activity, [35S]GTPγS binding to Gαo, 1 μM + BFNA for CCCCc1ccc(S(=O)(=O)N2CCC3(CC2)OCCN3S(=O)(=O)c2ccc(CCCC)cc2)cc1 fall at or above the 80% mark?
true

Can O=C1CN(Cc2ccccc2)C2(CCN(S(=O)(=O)c3cc(Cl)cc(Cl)c3O)CC2)N1 [Compound C0138M] be said to have MOR agonist activity, [35S]GTPγS binding to Gαo, 1 μM + BFNA at or above 80%?
false

Can C[C@@H](NC(=O)[C@@H](N)Cc1ccc(O)cc1)C(=O)NCC(=O)N(C)[C@@H](Cc1ccccc1)C(=O)NCCO [DAMGO, reference compound] be said to have MOR agonist activity, [35S]GTPγS binding to Gαo, 1 μM + BFNA at or above 80%?
false

Check if MOR agonist activity, [35S]GTPγS binding to Gαo, 1 μM + BFNA >= 80% (inclusive). Item: O=S(=O)(c1ccc(-c2ccccc2)cc1)N1CCC2(CC1)OCCN2S(=O)(=O)c1ccc(-c2ccccc2)cc1
true

Record O=S(=O)(c1ccc(OC(F)(F)F)cc1)N1CCC2(CC1)OCCN2S(=O)(=O)c1ccc(OC(F)(F)F)cc1 ; criterion: MOR agonist activity, [35S]GTPγS binding to Gαo, 1 μM + BFNA no lower than 80%. Met?
false

State whether the measured MOR agonist activity, [35S]GTPγS binding to Gαo, 1 μM + BFNA reaches 80%, counting equality as reaching it, for O=S(=O)(c1cccc(OC(F)(F)F)c1)N1CCC2(CC1)OCCN2S(=O)(=O)c1cccc(OC(F)(F)F)c1
true

Determine whether this compound has MOR agonist activity, [35S]GTPγS binding to Gαo, 1 μM + BFNA no lower than 80%: O=S(=O)(c1ccc(Br)c(C(F)(F)F)c1)N1CCC2(CC1)OCCN2S(=O)(=O)c1ccc(Br)c(C(F)(F)F)c1
true

###

Target: mu opiate receptor (MOR) (Rattus norvegicus)
Construct: from tissue; host or cells: rat striatal membrane preparation
Assay: MOR agonist activity using [35S]GTPγS binding assay in striatal membranes
Type: biochemical
Conditions: 0.1 μM compound, striatal membranes
Description: To assess the mu opiate receptor (MOR) agonist activity of positive compounds from the FLNA screening, compounds were tested in a [^35S]GTPγS binding assay using striatal membranes. […] The immunocomplexes so formed were collected by incubation at 25° C. for 30 minutes with 40 μl of agarose-conjugated protein A/G beads and centrifugation at 5,000×g at 4° C. for 5 minutes. […] The radioactivity in the suspension was determined by liquid scintillation spectrometry. […]
Record form. Attribute: MOR agonist activity, [35S]GTPγS binding to Gαo, FLNA-binding compound as agonist 0.1 μM. Fill in for each entry.
Could you give me the number in %? Just the number is fine.

Name the recorded MOR agonist activity, [35S]GTPγS binding to Gαo, FLNA-binding compound as agonist 0.1 μM for CNc1ccc(S(=O)(=O)N2CCC3(CC2)OCCN3S(=O)(=O)c2ccc(NC)cc2)cc1 [Compound C0024] .
178.4

// lookup MOR agonist activity, [35S]GTPγS binding to Gαo, FLNA-binding compound as agonist 0.1 μM for O=S(=O)(c1ccc(Cl)cc1)N1CCC2(CC1)OCCN2S(=O)(=O)c1ccc(Cl)cc1 [Compound C0067]
142.7

// MOR agonist activity, [35S]GTPγS binding to Gαo, FLNA-binding compound as agonist 0.1 μM lookup, key: O=C1CN(Cc2ccccc2)C2(CCN(S(=O)(=O)c3cc(Cl)cc(Cl)c3O)CC2)N1 [Compound C0138M]
126.9

Return reported MOR agonist activity, [35S]GTPγS binding to Gαo, FLNA-binding compound as agonist 0.1 μM; argument: O=S(=O)(c1ccc(Br)cc1)N1CCC2(CC1)OCCN2S(=O)(=O)c1ccc(Br)cc1 [Compound C0025]
235.7

Please give the measured MOR agonist activity, [35S]GTPγS binding to Gαo, FLNA-binding compound as agonist 0.1 μM for this compound: N#Cc1ccc(S(=O)(=O)N2CCC3(CC2)OCCN3S(=O)(=O)c2ccc(C#N)cc2)cc1 [Compound C0008]
71.2

Any idea what its MOR agonist activity, [35S]GTPγS binding to Gαo, FLNA-binding compound as agonist 0.1 μM is? The compound is O=S(=O)(c1ccccc1)N1CCC2(CC1)OCCN2S(=O)(=O)c1ccccc1 [Compound C0016]
172.7

Which MOR agonist activity, [35S]GTPγS binding to Gαo, FLNA-binding compound as agonist 0.1 μM value belongs to COc1ccc(S(=O)(=O)N2CCC3(CC2)OCCN3S(=O)(=O)c2ccc(OC)cc2)cc1 [Compound 7866] ?
152.3

Consider the compound shown here: CC(O)c1ccc(S(=O)(=O)N2CCC3(CC2)OCCN3S(=O)(=O)c2ccc(C(C)O)cc2)cc1 (centres unmarked) [Compound C0051] What is its recorded MOR agonist activity, [35S]GTPγS binding to Gαo, FLNA-binding compound as agonist 0.1 μM?
94.4

###

I'd appreciate it if you could supply MOR agonist activity, [35S]GTPγS binding to Gαo, 1 μM + BFNA values for the items below.
Biological target: mu opiate receptor (MOR) (Rattus norvegicus, UniProt P33535)
Construct: from tissue; host or cells: rat striatal membrane preparation
Test: MOR agonist activity using [35S]GTPγS binding assay in striatal membranes
Assay type: biochemical
Conditions: 1 μM compound + 1 μM β-funaltrexamine
// return numeric value only (unit: %, not printed)

Returns the measured MOR agonist activity, [35S]GTPγS binding to Gαo, 1 μM + BFNA for the input compound. Input: Cc1cccc(S(=O)(=O)N2CCC3(CC2)OCCN3S(=O)(=O)c2cccc(C)c2)c1 [Compound C0014]
76.3

// lookup MOR agonist activity, [35S]GTPγS binding to Gαo, 1 μM + BFNA for COc1ccc(NC(=O)N2CCC3(CC2)OCCN3S(=O)(=O)c2ccc(OC)cc2)cc1 [Compound C0041]
95.5

Fill in the blank: the reported MOR agonist activity, [35S]GTPγS binding to Gαo, 1 μM + BFNA of O=S(=O)(c1ccccc1)N1CCC2(CC1)OCCN2S(=O)(=O)c1ccccc1 [Compound C0016] is ____.
96.7

I'd like to know its MOR agonist activity, [35S]GTPγS binding to Gαo, 1 μM + BFNA. The compound in question is CC(=O)c1ccc(S(=O)(=O)N2CCC3(CC2)NC(=O)C(Cc2cnc[nH]2)N3S(=O)(=O)c2ccc(C(C)=O)cc2)cc1 (stereo not shown) [Compound C0084M]
133.2

Item CC(O)c1ccc(S(=O)(=O)N2CCC3(CC2)OCCN3S(=O)(=O)c2ccc(C(C)O)cc2)cc1 (stereo not shown) [Compound C0051] has what recorded MOR agonist activity, [35S]GTPγS binding to Gαo, 1 μM + BFNA?
55.9

May I ask what MOR agonist activity, [35S]GTPγS binding to Gαo, 1 μM + BFNA has been recorded for CNc1ccc(S(=O)(=O)N2CCC3(CC2)OCCN3S(=O)(=O)c2ccc(NC)cc2)cc1 [Compound C0024] ?
59.3

Look at this compound and give its reported MOR agonist activity, [35S]GTPγS binding to Gαo, 1 μM + BFNA. O=S(=O)(c1ccc(C(F)(F)F)cc1)N1CCC2(CC1)OCCN2S(=O)(=O)c1ccc(C(F)(F)F)cc1 [Compound C0012]
184.4
